The measurements presented in this section are drawn from patent US20250296959A1.

Each item that follows carries a reported Kd.
Target: UniProt Q5ZPR3
Sequence (Q5ZPR3 29-534): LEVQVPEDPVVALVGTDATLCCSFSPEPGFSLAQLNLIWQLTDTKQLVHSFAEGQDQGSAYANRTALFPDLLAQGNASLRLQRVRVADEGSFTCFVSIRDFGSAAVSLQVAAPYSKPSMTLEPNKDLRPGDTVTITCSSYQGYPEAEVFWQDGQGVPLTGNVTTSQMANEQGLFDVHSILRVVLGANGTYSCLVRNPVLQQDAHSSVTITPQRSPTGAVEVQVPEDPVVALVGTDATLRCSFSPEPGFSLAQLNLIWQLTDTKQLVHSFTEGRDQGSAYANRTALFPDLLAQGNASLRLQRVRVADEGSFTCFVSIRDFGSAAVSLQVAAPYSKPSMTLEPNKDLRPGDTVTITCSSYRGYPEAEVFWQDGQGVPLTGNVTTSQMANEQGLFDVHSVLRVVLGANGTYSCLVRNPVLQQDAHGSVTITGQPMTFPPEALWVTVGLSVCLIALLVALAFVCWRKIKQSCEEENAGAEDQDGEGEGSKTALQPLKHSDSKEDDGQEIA
Assay: Affinity determination by surface plasmon resonance (SPR) to 4Ig B7-H3
Conditions: SPR KD—25° C., 4Ig B7-H3; 25° C. flow cell temperature
Positions of bridges follow the written chain, without caps; N, C: chain ends. Residues, ends and D or L forms follow the SMILES beside them.

- compound: "CCCC[C@H](NC(C)=O)C(=O)N[C@@H](Cc1ccc(O)cc1)C(=O)N[C@H]1CSSC[C@@H](C(=O)N[C@@H](Cc2c[nH]c3ccccc23)C(=O)N[C@@H](Cc2ccccc2)C(=O)N[C@@H](CCC(N)=O)C(=O)O)NC(=O)[C@H](Cc2ccc(O)cc2)NC(=O)[C@H](C(C)C)NC(=O)[C@H](CC(=O)O)NC(=O)[C@H](Cc2ccc(O)cc2)NC(=O)[C@H](CCCCN)NC(=O)CNC(=O)[C@H](C(C)C)NC1=O"
  Kd: "10 to 100 nM"

(Q) Recorded Kd for CSCC[C@H](NC(C)=O)C(=O)N[C@@H](Cc1ccc(O)cc1)C(=O)N[C@H]1CSSC[C@@H](C(=O)N[C@@H](Cc2c[nH]c3ccccc23)C(=O)N[C@@H](Cc2ccccc2)C(N)=O)NC(=O)[C@H](Cc2ccc(O)cc2)NC(=O)[C@H](C(C)C)NC(=O)[C@H](CC(=O)O)NC(=O)[C@H](Cc2ccc(O)cc2)NC(=O)[C@H](CCCCN)NC(=O)CNC(=O)[C@H](C(C)C)NC1=O [compound 1, Ac-M-Y-C-V-G-K-Y-D-V-Y-C-W-F-CONH2] (Ac-MYCVGKYDVYCWF-NH2; disulfide 3-11) with UniProt Q5ZPR3, please?
(A) 100 to 300 nM

---

Biological target: human 4lg B7-H3 (Homo sapiens)
Assay: Affinity determination by surface plasmon resonance (SPR) to 4Ig B7-H3
Details: SPR KD—37° C., 4Ig B7-H3; 37° C. flow cell temperature
pKd: −log10 of the molar value. Positions of bridges follow the written chain, without caps; N, C: chain ends. Non-standard residues stand in square brackets, D forms with d. Residues, ends and D or L forms follow the SMILES beside them. Phe(4-COOH) = N[C@@H](Cc1ccc(C(=O)O)cc1)C(=O)O; Trp(5-F) = N[C@@H](Cc1c[nH]c2ccc(F)cc12)C(=O)O; Ala(4-THP) = N[C@@H](CC1CCOCC1)C(=O)O; N(CH2CH2COOH)Gly = O=C(O)CCNCC(=O)O; Val(3-OH) = CC(C)(O)[C@H](N)C(=O)O; Tle = CC(C)(C)[C@H](N)C(=O)O; hLeu = CC(C)CC[C@H](N)C(=O)O; Nle = CCCC[C@H](N)C(=O)O; Sar = CNCC(=O)O
Each item that follows carries a reported pKd.

Consider the reported pKd for these compounds:
- compound: "CSCC[C@H](NC(C)=O)C(=O)N[C@@H](Cc1ccc(O)cc1)C(=O)N[C@H]1CSSC[C@@H](C(=O)N[C@@H](Cc2c[nH]c3ccccc23)C(=O)N[C@@H](Cc2ccccc2)C(N)=O)NC(=O)[C@H](Cc2ccc(O)cc2)NC(=O)[C@H](C(C)C)NC(=O)[C@H](CC(=O)O)NC(=O)[C@H](Cc2ccc(O)cc2)NC(=O)[C@H](CCCCN)NC(=O)CNC(=O)[C@H](C(C)C)NC1=O [compound 1, Ac-M-Y-C-V-G-K-Y-D-V-Y-C-W-F-CONH2] (Ac-MYCVGKYDVYCWF-NH2; disulfide 3-11)"
  pKd: "6.52 to 7.00"
- compound: "CCCC[C@H](NC(C)=O)C(=O)N[C@@H](Cc1ccc(O)cc1)C(=O)N[C@H]1CSSC[C@@H](C(=O)N[C@@H](Cc2c[nH]c3ccccc23)C(=O)N[C@@H](Cc2ccccc2)C(=O)N[C@H](C(N)=O)[C@@H](C)O)NC(=O)[C@H](Cc2ccc(O)cc2)NC(=O)[C@H](C(C)C)NC(=O)[C@H](CC(=O)O)NC(=O)[C@H](Cc2ccc(O)cc2)NC(=O)[C@H](CCCCN)NC(=O)CNC(=O)[C@H](C(C)C)NC1=O [compound 32, Ac-Nle-Y-C-V-G-K-Y-D-V-Y-C-W-F-Thr-CONH2] (Ac-[Nle]YCVGKYDVYCWFT-NH2; disulfide 3-11)"
  pKd: "7.00 to 8.00"

(Q) # lookup: pKd of CCCC[C@H](NC(C)=O)C(=O)N[C@@H](Cc1ccc(O)cc1)C(=O)N[C@H]1CSSC[C@@H](C(=O)N[C@@H](Cc2c[nH]c3ccccc23)C(=O)N[C@@H](Cc2ccccc2)C(N)=O)NC(=O)[C@H](Cc2ccc(O)cc2)NC(=O)[C@H](C(C)C)NC(=O)[C@H](CC(=O)O)NC(=O)[C@H](Cc2ccc(O)cc2)NC(=O)[C@H](CCCCN)NC(=O)CN(C)C(=O)[C@H](C(C)C)NC1=O [compound 26, Ac-Nle-Y-C-V-Sar-K-Y-D-V-Y-C-W-F-CONH2] (Ac-[Nle]YCV[Sar]KYDVYCWF-NH2; disulfide 3-11)
(A) 7.00 to 8.00

(Q) Then what about the compound CCCC[C@H](NC(C)=O)C(=O)N[C@@H](Cc1ccc(O)cc1)C(=O)N[C@H]1CSSC[C@@H](C(=O)N[C@@H](Cc2c[nH]c3ccccc23)C(=O)N[C@@H](Cc2ccccc2)C(N)=O)NC(=O)[C@H](Cc2ccc(O)cc2)NC(=O)[C@H](C(C)C)NC(=O)[C@H](CC(=O)O)NC(=O)[C@H](Cc2ccc(O)cc2)NC(=O)[C@H](CCCCN)NC(=O)CNC(=O)[C@H](C(C)C)NC1=O [Cpd #7, Ac-Nle-Y-C-V-G-K-Y-D-V-Y-C-W-F-CONH2] (Ac-[Nle]YCVGKYDVYCWF-NH2; disulfide 3-11) ?
(A) 7.00 to 8.00

(Q) Then what about the compound CC(=O)N[C@@H](CCC(C)C)C(=O)N[C@@H](Cc1ccc(O)cc1)C(=O)N[C@H]1CSSC[C@@H](C(=O)N[C@@H](Cc2c[nH]c3ccc(F)cc23)C(=O)N[C@@H](Cc2ccccc2)C(=O)N[C@H](C(=O)N[C@H](CCC(=O)O)C(N)=O)C(C)(C)O)CC(=O)[C@H](Cc2ccc(O)cc2)NC(=O)[C@H](C(C)C)NC(=O)[C@H](CC(=O)O)NC(=O)[C@H](C[C@H]2CC[C@H](O)CC2)NC(=O)[C@H](CCCCNC(=O)CN2CCN(CC(=O)O)CCN(CC(=O)O)CCN(CC(=O)O)CC2)NC(=O)CNC(=O)[C@H](C(C)(C)C)NC1=O ?
(A) 8.00 to 9.00

(Q) Then what about the compound CC(=O)N[C@@H](CCC(C)C)C(=O)N[C@@H](Cc1ccc(O)cc1)C(=O)N[C@H]1CSSC[C@@H](C(=O)N[C@@H](Cc2c[nH]c3ccc(F)cc23)C(=O)N[C@@H](Cc2ccccc2)C(=O)N[C@H](C(N)=O)C(C)(C)O)NC(=O)[C@H](Cc2ccc(O)cc2)NC(=O)[C@H](C(C)C)NC(=O)[C@H](CC(=O)O)NC(=O)[C@H](CC2CCOCC2)NC(=O)[C@H](CCCCN)NC(=O)CNC(=O)[C@H](C(C)(C)C)NC1=O [compound 404] (Ac-[hLeu]YC[Tle]GK[Ala(4-THP)]DVYC[Trp(5-F)]F[Val(3-OH)]-NH2; disulfide 3-11) ?
(A) 8.00 to 9.00

(Q) Then what about the compound CCCC[C@H](NC(C)=O)C(=O)N[C@@H](Cc1ccc(O)cc1)C(=O)N[C@H]1CSSC[C@@H](C(=O)N[C@@H](Cc2c[nH]c3ccccc23)C(=O)N[C@@H](Cc2ccccc2)C(=O)N[C@@H](CCC(=O)O)C(N)=O)NC(=O)[C@H](Cc2ccc(O)cc2)NC(=O)[C@H](C(C)C)NC(=O)[C@H](CC(=O)O)NC(=O)[C@H](Cc2ccc(O)cc2)NC(=O)[C@H](CCCCN)NC(=O)CNC(=O)[C@H](C(C)C)NC1=O [compound 34, Ac-Nle-Y-C-V-G-K-Y-D-V-Y-C-W-F-E-CONH2] (Ac-[Nle]YCVGKYDVYCWFE-NH2; disulfide 3-11) ?
(A) 7.00 to 8.00

(Q) Then what about the compound CCCC[C@H](NC(C)=O)C(=O)N[C@@H](Cc1ccc(O)cc1)C(=O)N[C@H]1CSSC[C@@H](C(=O)N[C@@H](Cc2c[nH]c3ccccc23)C(=O)N[C@@H](Cc2ccccc2)C(N)=O)NC(=O)[C@H](Cc2ccc(O)cc2)NC(=O)[C@H](C(C)C)NC(=O)[C@H](CC(=O)O)NC(=O)[C@H](Cc2ccc(C(=O)O)cc2)NC(=O)[C@H](CCCCN)NC(=O)CNC(=O)[C@H](C(C)C)NC1=O [compound 24] (Ac-[Nle]YCVGK[Phe(4-COOH)]DVYCWF-NH2; disulfide 3-11) ?
(A) 7.00 to 8.00

(Q) Then what about the compound CCCC[C@H](NC(C)=O)C(=O)N[C@@H](Cc1ccc(O)cc1)C(=O)N[C@H]1CSSC[C@@H](C(=O)N[C@@H](Cc2c[nH]c3ccccc23)C(=O)N[C@@H](Cc2ccccc2)C(N)=O)NC(=O)[C@H](Cc2ccc(O)cc2)NC(=O)[C@H](C(C)C)NC(=O)[C@H](CC(=O)O)NC(=O)[C@H](Cc2ccc(O)cc2)NC(=O)[C@H](CCCCN)NC(=O)CN(CCC(=O)O)C(=O)[C@H](C(C)C)NC1=O [compound 53] (Ac-[Nle]YCV[N(CH2CH2COOH)Gly]KYDVYCWF-NH2; disulfide 3-11) ?
(A) 6.52 to 7.00
